FYI, the data here is from patent US12486278B2.

Measured Ki of individual entries
- target.under.test: MASP-2 (CCP1-CCP2-SP) (Homo sapiens, UniProt O00187)
- Construct: 15 μL of Enzyme MASP-2 (CCP1-CCP2-SP) in Assay Buffer
- Sequence (O00187 445-686 limits assumed): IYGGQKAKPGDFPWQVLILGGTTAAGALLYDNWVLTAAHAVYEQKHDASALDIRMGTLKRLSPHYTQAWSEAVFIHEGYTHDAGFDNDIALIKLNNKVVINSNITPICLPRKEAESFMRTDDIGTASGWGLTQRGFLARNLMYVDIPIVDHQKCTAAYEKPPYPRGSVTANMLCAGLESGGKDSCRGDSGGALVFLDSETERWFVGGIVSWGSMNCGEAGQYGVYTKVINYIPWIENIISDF
- Sequence (O00187 298-444 partner limits assumed): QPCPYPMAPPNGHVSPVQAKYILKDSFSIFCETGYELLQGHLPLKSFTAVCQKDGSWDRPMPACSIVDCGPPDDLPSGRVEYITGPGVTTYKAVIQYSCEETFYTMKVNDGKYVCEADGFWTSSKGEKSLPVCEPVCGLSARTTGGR
- measurement.protocol: Enzymatic Assay for MASP-2 (fluorogenic substrate)
- condition.set: fluorogenic substrate based on C2 cleavage site; room temperature, 20 min; 20 mM HEPES pH 7.4, 140 mM NaCl, 0.1% Tween 20
Where a name gives a salt, the structure may show the parent alone.

Cc1nc(N)ccc1CNC(=O)[C@@H]1CCN1C(=O)[C@H]1C[C@H](c2cccc(-c3ccccc3)c2)CN1 [Compound I-64, Di-Trifluoroacetate]: < 0.5 µM
Cc1nc(N)ccc1CNC(=O)[C@H](C)NC(=O)[C@H]1C[C@H](Cc2ccc(C#N)s2)CN1 [Compound I-86, Dihydrochloride]: < 0.5 µM
C[C@H](NC(=O)[C@H]1C[C@@H](c2cccc(-c3ccccc3)c2)CCN1)C(=O)NCc1ccc(C(=N)N)cc1 [Compound I-68, Di-Trifluoroacetate]: < 0.5 µM
C[C@H](NC(=O)c1cc(Cc2ccc(-c3ccccc3)cc2)c[nH]1)C(=O)NCc1ccc(C(=N)N)cc1 [Compound I-100, trifluoroacetate]: < 0.5 µM
C[C@H](NC(=O)[C@H]1C[C@H](c2ccccc2)CN1)C(=O)NCc1[nH]c2ccncc2c1F [Compound I-7, Di-Trifluoroacetate]: < 0.5 µM
Cc1nc(N)ccc1CNC(=O)[C@H](C)NC(=O)[C@H]1C[C@H](Cc2cccc(-c3ccc(F)cc3)c2)CN1 [Compound I-81, Di-Trifluoroacetate]: < 0.5 µM

What Ki value was documented for this molecule, C[C@H](NC(=O)[C@H]1C[C@H](c2ccccc2)CN1)C(=O)NCc1nc2c(Cl)cccc2s1 [Compound I-4, Trifluoroacetate] ?
0.5 to 2.5 µM

What Ki value was documented for this molecule, Cc1nc(N)ccc1CNC(=O)[C@H](C)NC(=O)[C@H]1C[C@H](Cc2cccc(C(=O)O)c2)CN1 [Compound I-48, Di-Trifluoroacetate] ?
< 0.5 µM

What Ki value was documented for this molecule, CCOC(=O)CCN1CC[C@H](c2ccccc2)C[C@@H]1C(=O)N[C@@H](C)C(=O)NCc1cc(Cl)ccc1-n1cnnn1 ?
2.5 to 10 µM

What Ki value was documented for this molecule, C[C@H](NC(=O)[C@H]1C[C@@H](c2cc3ccccc3s2)CCN1)C(=O)NCc1ccc(C(=N)N)cc1 [Compound I-71, Di-Trifluoroacetate] ?
< 0.5 µM

What Ki value was documented for this molecule, Cc1nc(N)ccc1CNC(=O)[C@@H]1COC(=O)N1C(=O)[C@H]1C[C@H](Cc2ccccc2)CN1 [Compound I-58, Di-Trifluoroacetate] ?
< 0.5 µM

What Ki value was documented for this molecule, C[C@H](NC(=O)[C@H]1C[C@@H](c2ccc(-c3cccnc3)cc2)CCN1)C(=O)NCc1ccc(C(=N)N)cc1 [Compound I-72, Di-Trifluoroacetate] ?
< 0.5 µM

What Ki value was documented for this molecule, COC(=O)c1cccc(C[C@@H]2CN[C@@H](C(=O)N[C@@H](C)C(=O)NCc3ccc(N)nc3C)C2)c1 [Compound I-47, Dihydrochloride] ?
< 0.5 µM

What Ki value was documented for this molecule, C[C@H](NC(=O)[C@H]1C[C@@H](c2cccc(C(N)=O)c2)CN1)C(=O)NCc1ccc(C(=N)N)cc1 ?
< 0.5 µM

What Ki value was documented for this molecule, C[C@H](NC(=O)[C@H]1C[C@@H](c2ccc3ccccc3c2)CCN1)C(=O)NCc1ccc(C(=N)N)cc1 [Compound I-70, Di-Trifluoroacetate] ?
< 0.5 µM

What Ki value was documented for this molecule, Cc1nc(N)ccc1CNC(=O)[C@H](C)NC(=O)[C@H]1C[C@H](Cc2ccc(C(F)(F)F)s2)CN1 [Compound I-89, Dihydrochloride] ?
< 0.5 µM

What Ki value was documented for this molecule, C[C@H](NC(=O)[C@H]1C[C@@H](c2ccccc2)CCN1CCP(=O)(O)O)C(=O)NCc1ccc(C(=N)N)cc1 [Compound I-38, Di-Trifluoroacetate] ?
< 0.5 µM

What Ki value was documented for this molecule, Cc1nc(N)ccc1CNC(=O)[C@H](C)NC(=O)[C@H]1C[C@H](Cc2cc(Cl)c(Cl)s2)CN1 [Compound I-18, Di-Trifluoroacetate] ?
< 0.5 µM

====

- target.under.test: MASP-2 (CCP1-CCP2-SP) (Homo sapiens, UniProt O00187)
- Construct: 15 μL of Enzyme MASP-2 (CCP1-CCP2-SP) in Assay Buffer
- measurement.protocol: Enzymatic Assay for MASP-2 (fluorogenic substrate)
- condition.set: fluorogenic substrate based on C2 cleavage site; room temperature, 20 min; 20 mM HEPES pH 7.4, 140 mM NaCl, 0.1% Tween 20
Counter-ions that a name gives are not always drawn.
Measured Ki of individual entries

What Ki value was documented for this compound, Cc1nc(N)ccc1CNC(=O)[C@H](C)NC(=O)[C@H]1C[C@H](Cc2ccc(F)c(Cl)c2F)CN1 [Compound I-88, Dihydrochloride] ?
< 500 nM

====

- target.under.test: MASP-2 (CCP1-CCP2-SP) (Homo sapiens, UniProt O00187)
- Construct: 15 μL of Enzyme MASP-2 (CCP1-CCP2-SP) in Assay Buffer
- measurement.protocol: Enzymatic Assay for MASP-2 (fluorogenic substrate)
- condition.set: fluorogenic substrate based on C2 cleavage site; room temperature, 20 min; 20 mM HEPES pH 7.4, 140 mM NaCl, 0.1% Tween 20
measurement.kind: Ki

C[C@H](NC(=O)[C@H]1C[C@H](Cc2ccnc(N)c2)CN1)C(=O)NCc1ccc(C(=N)N)cc1 [Compound I-56, Di-Trifluoroacetate]: < 0.5 µM
C[C@H](NC(=O)[C@H]1C[C@H](Cc2cccc(C(=O)O)c2)CN1)C(=O)NCc1ccc(C(=N)N)cc1 [Compound I-55, Di-Trifluoroacetate]: < 0.5 µM

What Ki value was documented for this molecule, C[C@H](NC(=O)[C@H]1C[C@@H](c2ccccc2)CCN1CCP(=O)(O)O)C(=O)NCc1cc2cnccc2[nH]1 [Compound I-39, Di-Trifluoroacetate] ?
< 0.5 µM

====

- target.under.test: MASP-2 (CCP1-CCP2-SP) (Homo sapiens, UniProt O00187)
- Construct: 15 μL of Enzyme MASP-2 (CCP1-CCP2-SP) in Assay Buffer
- measurement.protocol: Enzymatic Assay for MASP-2 (fluorogenic substrate)
- condition.set: fluorogenic substrate based on C2 cleavage site; room temperature, 20 min; 20 mM HEPES pH 7.4, 140 mM NaCl, 0.1% Tween 20
pKi: −log10 of the molar value. Where a name gives a salt, the structure may show the parent alone.
Measured pKi of individual entries

Here is how some molecules turned out for pKi.
C[C@H](NC(=O)[C@H]1C[C@H](Oc2ccccc2)CN1)C(=O)NCc1ccc(C(=N)N)cc1 [Compound I-96, di-trifluoroacetate]: > 6.30
C[C@H](NC(=O)[C@H]1C[C@H](Oc2ccccc2)CN1)C(=O)NCc1cc2cnccc2[nH]1 [Compound I-97, di-trifluoroacetate]: > 6.30
C[C@H](NC(=O)[C@H]1C[C@@H](c2ccccc2)CCN1CC(=O)O)C(=O)NCc1ccc(C(=N)N)cc1 [Compound I-34, Di-Trifluoroacetate]: > 6.30
C[C@H](NC(=O)[C@H]1C[C@@H](c2ccccc2)CCN1CCCP(=O)(O)O)C(=O)NCc1cc(Cl)ccc1-n1cnnn1 [Compound I-40, Di-Trifluoroacetate]: 5.60 to 6.30
C[C@H](NC(=O)[C@H]1C[C@@H](c2ccc(-c3ccccc3)cc2)CCN1)C(=O)NCc1cc2cnccc2[nH]1 [Compound I-74, Di-Trifluoroacetate]: > 6.30
C[C@H](NC(=O)[C@H]1C[C@@H](c2ccc(F)cc2)CCN1)C(=O)NCc1ccc(C(=N)N)cc1: > 6.30
Cc1nc(N)ccc1CNC(=O)[C@H](C)NC(=O)[C@H]1C[C@H](Cc2cc(Br)c(Br)s2)CN1 [Compound I-17, Di-Trifluoroacetate]: > 6.30
C[C@H](NC(=O)[C@H]1C=C(C2(c3ccccc3)CC2)CN1)C(=O)NCc1ccc(C(=N)N)cc1 [Compound I-52, Di-Trifluoroacetate]: > 6.30
C[C@H](NC(=O)[C@H]1C[C@@H](c2ccncc2)CN1)C(=O)NCc1ccc(C(=N)N)cc1 [Compound I-95, di-trifluoroacetate]: 5.60 to 6.30
C[C@H](NC(=O)[C@H]1C[C@@H](c2ccc(-c3ccccc3)cc2)CCN1)C(=O)NCc1cc(Cl)ccc1-n1cnnn1 [Compound I-102, trifluoroacetate]: > 6.30

What pKi value was documented for this molecule, C[C@H](NC(=O)[C@H]1C[C@H](Cc2cccc(Cl)c2)CN1)C(=O)NCc1cnc2[nH]cc(Cl)c2c1 [Compound I-82, Dihydrochloride] ?
> 6.30

What pKi value was documented for this molecule, Cc1nc(N)ccc1CNC(=O)[C@@H]1CCN1C(=O)[C@H]1C[C@@H](c2ccccc2)CCN1 [Compound I-63, Di-Trifluoroacetate] ?
> 6.30
